Test system: KM12 colon
method: NCI-60 one-dose screen, 48 h
condition_summary: 10 µM unless noted
Compounds without any hit were thinned out: in the full panel of roughly 83,000, 20% have a hit. Activity calls are given as the source filed them. The calls were made as follows: active = growth percent below 10; inactive = the rest.
Your reply should match one of these outcome classes. TRUE (active), FALSE (inactive)

For orientation, consider the following solved cases.
>  <compound>
Cc1cc2c(cc1Cl)C(=O)/C(=C/c1ccc(F)cc1)O2

>  <category>
FALSE

$$$$
>  <compound>
CC1(c2cc3cc(Br)ccc3oc2=O)NC(=O)c2c(/C=C/C(=O)OC3CC4CCC3(C)C4(C)C)cccc2N1 (stereo not given)

>  <category>
FALSE

$$$$
>  <compound>
C=C1CCC2C3(C)COC(c4cc(F)cc(F)c4)OC3CCC2(C)C1CC(O)C1=CCOC1=O (stereo not given)

>  <category>
FALSE

$$$$
>  <compound>
COc1ccc(NC(=O)[C@H](C)N)cc1C(=O)Nc1cccc(C2CC(=O)c3c(cc(OC)c(OC)c3OC)O2)c1 (stereo not given in full)

>  <category>
FALSE

$$$$

Name the outcome recorded for CC(=O)OC[C@@]1(C)C2CC[C@]3(C)C(CC=C4C5CC(C)(C)CC[C@]5(C(=O)Nc5ccc(F)cc5)CC[C@]43C)[C@@]2(C)C[C@@H](OC(C)=O)[C@@H]1OC(C)=O (stereo not given in full) in the assay.
FALSE

How did this test come out for O=C(COc1ccc(NC(=O)Nc2ccc(Cl)c(Cl)c2)cc1)N=Nc1c(O)[nH]c2ccc([N+](=O)[O-])cc12 ?
FALSE

What was the test verdict on CC(=O)Nc1ccc(C(=O)NC(=S)Nc2ccc(S(N)(=O)=O)cc2)cc1 ?
FALSE

---

So I've got a bunch of compounds here, and I need their growth values.
Test system: SF-295 CNS
method: NCI-60 one-dose screen, 48 h (100 = growth as untreated, 0 = no growth, -100 = all killed)
condition_summary: 10 µM unless noted
The panel holds about 83,000 compounds, 20% with a hit somewhere; the sample as a whole holds those more often. The source made the active and inactive calls. Rule for the calls: active = growth percent below 10; inactive = the rest.

// worked examples, growth included
>  <compound>
Cc1occc1C(=O)NN1C(=O)/C(=C/C=C/c2ccc([N+](=O)[O-])o2)SC1=S

>  <growth>
47% (inactive)

$$$$
>  <compound>
Cn1cc(-c2nnc(N)nc2-c2c[nH]c3ccccc23)c2cccnc21

>  <growth>
32% (inactive)

$$$$
>  <compound>
CN1CCN(c2ccc3c(c2)nc(NNC(=O)c2cnccn2)c2cccn23)CC1

>  <growth>
-81.3% (active)

$$$$
>  <compound>
COc1ccc2c(c1)c(-c1cc3nc(-c4cn(C)c5ncccc45)cc(N)n3n1)cn2C

>  <growth>
-79.4% (active)

$$$$
>  <compound>
COc1ccc(-c2nnc3ccc(N/N=C/c4ccc(O)cc4)nn23)cc1

>  <growth>
43.6% (inactive)

$$$$

For every listed record, write down its growth.
1. C/C(=N\N=C\c1cc([N+](=O)[O-])ccc1Cl)c1ccc2c(c1)Nc1ccccc1S2
2. O=c1[nH]n(C(=S)N/N=C/c2ccccc2Cl)c(=O)c2ccccc12

1: -28% (active); 2: 15.9% (inactive)

---

Hi there, I'd appreciate the recorded growth for every entry that follows.
System: K-562 leukemia
method: NCI-60 one-dose screen, 48 h (100 = growth as untreated, 0 = no growth, -100 = all killed)
condition_summary: 10 µM unless noted
Compounds without any hit were thinned out: in the full panel of roughly 83,000, 20% have a hit.
One number for each entry, in %.

Please review the entries below; each comes with its answer.
>  <compound>
COc1ccc(/C=C/c2nc3ccccc3c(=O)n2CC(=O)Nc2ccc(Cl)cc2)cc1

>  <experimental_system>
K-562 leukemia

>  <display_unit>
%

>  <result_value>
66.6

$$$$
>  <compound>
CCCS(=O)(=O)N1CCCC(C(=O)Nc2nc3ccc(NC(=O)c4ccc(F)c(OC)c4F)cc3s2)C1 (configuration not stated)

>  <experimental_system>
K-562 leukemia

>  <display_unit>
%

>  <result_value>
27.6

$$$$
>  <compound>
CC1CN(c2oc(-c3ccc([N+](=O)[O-])cc3)nc2C#N)CC(C)O1 (configuration not stated)

>  <experimental_system>
K-562 leukemia

>  <display_unit>
%

>  <result_value>
105

$$$$
>  <compound>
O=C(COc1ccc(NC(=O)Nc2ccc(Cl)c(Cl)c2)cc1)N=Nc1c(O)[nH]c2ccc(Br)cc12

>  <experimental_system>
K-562 leukemia

>  <display_unit>
%

>  <result_value>
7.78

$$$$
>  <compound>
CSc1ccc(NC(=O)c2ccc3nn(/C(C#N)=C/c4ccccn4)nc3c2)cc1

>  <experimental_system>
K-562 leukemia

>  <display_unit>
%

>  <result_value>
-13.4

$$$$
>  <compound>
CC(C)c1ccc2c(N)c(C(=O)Nc3cccc(C(F)(F)F)c3)sc2n1

>  <experimental_system>
K-562 leukemia

>  <display_unit>
%

>  <result_value>
8.51

$$$$
>  <compound>
COc1ccc(C(=O)/C=C/c2ccc(Oc3nc(Nc4ccc(F)cc4)nc(N(C)C)n3)c(OC)c2)cc1

>  <experimental_system>
K-562 leukemia

>  <display_unit>
%

>  <result_value>
26.4

$$$$
>  <compound>
Cn1cc(NC(=O)c2cc(NC(=O)c3ccc(/C=C/c4ccccc4)cc3)cn2C)cc1C(=O)NCCCN1CCOCC1

>  <experimental_system>
K-562 leukemia

>  <display_unit>
%

>  <result_value>
-41.3

$$$$
>  <compound>
COc1cccc(COc2ccc(NC(=O)Nc3ccc(Cl)c(C(F)(F)F)c3)cc2)c1

>  <experimental_system>
K-562 leukemia

>  <display_unit>
%

>  <result_value>
27.1

$$$$
>  <compound>
O=c1oc2ccccc2cc1-c1csc(N=Nc2c(O)[nH]c3ccc(Cl)cc23)n1

>  <experimental_system>
K-562 leukemia

>  <display_unit>
%

>  <result_value>
104

$$$$

Dear reader, for each entry below, please note its growth.
1. CN(C)c1nc(NCCNS(=O)(=O)c2ccc(C3=Nc4c(N)nc(N)nc4NC(c4ccccc4)C3)cc2)nc(Nc2ccc(F)cc2)n1 (configuration not stated)
2. Cn1cc(-c2nnc(N)nc2-c2c[nH]c3ccc(Br)cc23)c2cc(Br)cnc21
3. COc1ccc(C2CC(c3ccc(S(=O)(=O)NCCNc4nc(Nc5ccc(F)cc5)nc(N(C)C)n4)cc3)=Nc3c(N)nc(N)nc3N2)cc1 (configuration not stated)
4. COc1cc(/C=C2\C(=N)N=C(SCc3nc4ccccc4[nH]3)NC2=O)ccc1O
5. CC1(c2cc3cc(Br)ccc3oc2=O)NC(=O)c2c(/C=C/C(=O)OC3CC4CCC3(C)C4(C)C)cccc2N1 (configuration not stated)
6. COc1c(F)ccc(C(=O)Nc2ccc3nc(NC(=O)C4CCCN(S(=O)(=O)c5ccc(Br)s5)C4)sc3c2)c1F (configuration not stated)

1. 7.64
2. 26.7
3. 35.6
4. 103
5. 28.4
6. 68.9

---

Tested on: SN12C renal
method: NCI-60 one-dose screen, 48 h
condition_summary: 10 µM unless noted
About 83,000 compounds went through this panel and 20% of them were active in at least one assay; those are over-represented in the sample as a whole. Active and inactive are the calls of the source. The calls were made as follows: active = growth percent below 10; inactive = the rest.
Give your call using only these classes: active, inactive

Here's what some known entries look like.
>  <compound>
COc1cc2oc(-c3cccc(NC(=O)[C@H](CC(N)=O)NC(=O)OC(C)(C)C)c3)cc(=O)c2c(OC)c1OC

>  <experimental_system>
SN12C renal

>  <category>
inactive

$$$$
>  <compound>
CCN1C(=O)/C(=N\N=C(/C)c2ccc3c(c2)Nc2ccccc2S3)c2cc(Cl)ccc21

>  <experimental_system>
SN12C renal

>  <category>
inactive

$$$$
>  <compound>
CNC(=O)c1cccc(NC(=O)c2ccc3c(c2)nnn3/C(C#N)=C/c2ccccn2)c1

>  <experimental_system>
SN12C renal

>  <category>
active

$$$$
>  <compound>
CCOc1ccc(-c2c(C#N)c(-c3ccc(Cl)cc3)nc3n[nH]c(-c4ccc(Cl)cc4)c23)cc1OC

>  <experimental_system>
SN12C renal

>  <category>
inactive

$$$$
>  <compound>
Cc1ccc2c(c1)nc(-c1ccccc1)n2CC(=O)N=Nc1c(O)[nH]c2ccc(Br)cc12

>  <experimental_system>
SN12C renal

>  <category>
active

$$$$

Which outcome was entered for the compound S=C(Nc1ccccc1)Nc1ccc(OCc2nc3ccccc3[nH]2)cc1 in this test?
inactive

Hi, sorry to bother you, what did the test record for CCCCSc1nc(Nc2ccc(S(N)(=O)=O)cc2)c(C#N)c(-c2ccc(Cl)cc2)n1 ?
active

Identify the outcome logged in this assay for the compound shown: COc1cc2oc(-c3cccc(C(=O)Nc4ccc(Cl)cc4)c3)cc(=O)c2c(OCCNC(=O)[C@@H](N)CCC(=O)O)c1OC
inactive

Returns: the outcome recorded for COc1cc(C2CC(c3cc(OC)c(OC)c(OC)c3)=NN2C(C)=O)ccc1OCc1ccccc1 (centres undefined) in this assay.
inactive
